- targetDesc: T1, Activin A (UniProt P08476 311-426)
- T1 sequence (looked up): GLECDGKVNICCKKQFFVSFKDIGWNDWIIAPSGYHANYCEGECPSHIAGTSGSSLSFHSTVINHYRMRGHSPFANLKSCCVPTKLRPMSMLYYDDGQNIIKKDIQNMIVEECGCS
- assayInfo: cell-based or functional assay
experimentalReadout: IC50, SBE-luciferase reporter in HEK293 cells (µg/mL)
# value in µg/mL; strip the unit string

Some binders with known IC50, SBE-luciferase reporter in HEK293 cells results, for comparison:
* ActRIIB-B7 (SEQ ID NO: 115) chimera-Fc protein (Fc fusion, Tested as chimera-Fc protein; not shown: linker (if any) and Fc domain) GRGEAETRECIYYNANWELERTNQSGLERCEGEQDKRLHCYASWRNSSGTIELVKKGCWLDDFNCYDRQECVATEENPQVYFCCCEGNFCNEKFSYFPEAGGPEVTYEPPPTAPT | 0.067
* ActRIIB-B5 (SEQ ID NO: 114) chimera-Fc protein (Fc fusion, Tested as chimera-Fc protein; not shown: linker (if any) and Fc domain) GRGEAETRECIYYNANWELERTNQSGLERCEGEQDKRLHCYASWRNSSGTIELVKKGCWLDDFNCYDRQECVEKEENPQVYFCCCEGNFCNERFTHLPEAGGPEVTYEPPPTAPT | 0.069
* ActRIIB-B3 (SEQ ID NO: 112) chimera-Fc protein (Fc fusion, Tested as chimera-Fc protein; not shown: linker (if any) and Fc domain) GRGEAETRECIYYNANWELERTNQSGLERCEGEQDKRRHCFATWKNISGTIELVKKGCWLDDFNCYDRQECVATEENPQVYFCCCEGNFCNERFTHLPEAGGPEVTYEPPPTAPT | 0.07

Let us move to another entry and its IC50, SBE-luciferase reporter in HEK293 cells.
Reported IC50, SBE-luciferase reporter in HEK293 cells for ActRIIB-A1 (SEQ ID NO: 120) chimera-Fc protein (Fc fusion, not shown: a dimerising Fc or GST) GAILGRSETQECIYYNANWELERTNQSGLERCEGEQDKRLHCYASWRNSSGTIELVKKGCWLDDFNCYDRQECVATEENPQVYFCCCEGNFCNERFTHLPEAGGPEVTYEPPPTAPT was 0.075

Hello, the source for this data is patent US20250270287A1, in case you need it.
